Each recorded value in this set is attributed to PubChem BioAssay AID248.

Tested on: L1210 leukemia ip in BDF1 mice, survival T/C
ASSAY_INFO: NCI In Vivo Anticancer Drug Screen. Data for tumor model L1210 Leukemia (intraperitoneal) in B6D2F1 (BDF1) mice
CONDITION_PARAMETERS: endpoint: mean survival time; dose: 50.0 mg/kg/injection; schedule: Q01DX009 (ip); vehicle: Klucel (hydroxypropylcellulose) (HPC); higher = longer survival
Toxic doses and inconclusive results are not listed.
Recorded T/C values for a group of compounds are listed next.

compound=CCCCCC(=C/c1ccccc1)/C=N/NC(=O)c1ccc[n+](C)c1 target_or_system="L1210 leukemia ip in BDF1 mice, survival T/C" quantity_name=T/C readout_value="90 % of control"

Note to self: T/C recorded for `CCN(CC)CCN(CCO)Cc1ccccc1` was 92 % of control

Looking up `CC[C@@H]1C[C@@H]2CN3CCc4c([nH]c5ccc(OC)cc45)C(C(=O)OC)(C2)C13` , I found its T/C recorded as 89 % of control

Form field T/C, entry `NC(=O)c1cc(Br)ccc1O` : 89 % of control

The recorded T/C for entry CCC(C)C(N)C(=O)OCc1ccccc1 (configuration not stated) equals 88 % of control

Data point: `O=C1c2ccccc2C(Cl)=C(Cl)C1(Cl)Cl` ; T/C = 90 % of control

Measured T/C, `COc1ccc(C=C2C(=O)NC(=O)NC2=O)cc1OC` : 92 % of control

The recorded T/C for entry `Cc1c(C)c(Br)c(C)c(-c2c(C)c(C)c(C)c(Br)c2C)c1C` equals 99 % of control
